Sourced from patent US20210032351A1

target under test: T1, wild-type EGFR protein on the surfaces of A431 tumor cells and normal human primary hepatocytes (human, UniProt P00533 25-1210)
T1 construct: whole, on cells; Same protein on two cell types; also called human epidermal growth factor receptor; her-1
protocol text: FACS, normal human primary hepatocytes
measured metric: mean fluorescence intensity (MFI)
Answer format: numeric, MFI implied, no suffix.

>  <binder>
Humanized antibody h63A10A7-26 (antibody, human IgG1, V domains shown, Human IgG1 constant region, human kappa constant region) VH: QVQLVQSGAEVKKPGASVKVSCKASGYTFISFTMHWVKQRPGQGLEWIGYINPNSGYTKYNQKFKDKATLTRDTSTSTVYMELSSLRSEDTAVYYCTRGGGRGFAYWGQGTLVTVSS VL: DILMTQSPSSLSASVGDRVTITCHASQDINSNIGWYQQKPGKSFKALIYHGTNLEDGVPSRFSGSGSGADFTLTISSLQPEDFATYYCVQYAQFPFTFGQGTKLEIK

>  <value unit>
MFI

>  <obs value>
435

$$$$

API: the following record is the query input.
Name the reported mean fluorescence intensity (MFI) value associated with the binder Humanized antibody h63A10A7-38 (antibody, human IgG1, V domains shown, Human IgG1 constant region, human kappa constant region) VH: QVQLVQSGAEVKKPGASVKVSCKASGYTFISFTMHWVRQAPGQGLEWIGYINPNSGYTKYNQKFKDKATLTRDTSTSTVYMELSSLRSEDTAVYYCTRGGGRGFAYWGQGTLVTVSS VL: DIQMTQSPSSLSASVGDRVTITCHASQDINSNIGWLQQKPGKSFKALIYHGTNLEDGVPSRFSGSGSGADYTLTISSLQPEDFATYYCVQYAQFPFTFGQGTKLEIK
254
